Kindly apply the following: 1.0 if melting point is less than 200 °C, 0.0 in every other case.

Example entries begin here.
INSERT INTO assay_data (molecule, assignedclass) VALUES
  ('Cc1cncc(C(=O)O)c1', 0.0),
  ('COc1ccccc1NC(=O)c1cnc(C(C)(C)C)cn1', 1.0);

Please let me know if [O-][N+](=Nc1cccc(O)c1)c1cccc(O)c1 shows melting point below 200 °C. 1.0

Please let me know if NNCCO shows melting point below 200 °C. 1.0

Please let me know if CCC(=O)OC1CCC2(C)C(=CCC3C2CCC2(C)C(OC(=O)CC)CCC32)C1 (stereo unspecified) shows melting point below 200 °C. 1.0

Please let me know if COS(=O)(=O)c1cc([N+](=O)[O-])ccc1C#Cc1ccc([N+](=O)[O-])cc1S(=O)(=O)OC shows melting point below 200 °C. 0.0

Please let me know if CC12CCC(C(O)=CC1=O)C2(C)C (stereo unspecified) shows melting point below 200 °C. 0.0

Please let me know if CC(CCC(=O)O)C1CCC2C3C(=O)CC4CC(=O)CCC4(C)C3CC(=O)C12C (stereo unspecified) shows melting point below 200 °C. 0.0

Please let me know if c1cn[nH]c1 shows melting point below 200 °C. 1.0

----------
outcomeMeasure: melting point (°C)
Give the value, in units of °C, as a plain number.

INSERT INTO measurements (smilesrepresentation, outcomemeasure, observedresult) VALUES
  ('O=C(Oc1ccccc1)c1cccnc1', 'melting point', 72),
  ('O=[N+]([O-])c1ccc(Oc2c(Cl)cc(Cl)cc2Cl)cc1', 'melting point', 106);

// next item, melting point requested
Given the compound CC(=O)Nc1ccccc1F , write its reported melting point. 78

----------
Mark NO for melting point values under 200 °C, and YES for everything at or above.

Example entries begin here.
INSERT INTO assay_data (compound, assignedclass) VALUES
  ('CC12CCC(C(COC(=O)c3ccc([N+](=O)[O-])cc3)C1)C2(C)C (configuration not stated)', 'NO'),
  ('CCC1CN2CCC1CC2C(O)c1ccnc2ccc(OCCC(C)C)cc12 (configuration not stated)', 'NO'),
  ('COc1ccc(NC(=S)c2ccccc2)cc1', 'NO'),
  ('Nc1ncn[nH]1', 'NO');

# evaluate next
// inclusive: melting point at least 200 °C? input: COc1ccc(CC(N)=O)cc1 NO

----------
# maps each entry to its melting point
Give the value, in units of °C, as a plain number.

Given the compound CC(=O)Nc1cc(C(F)(F)F)cc(C(F)(F)F)c1 , write its reported melting point. 161

Given the compound CC(C)CCC#N , write its reported melting point. -51

Given the compound CC1OC(Oc2c(-c3ccc(O)c(O)c3)oc3cc(O)cc(O)c3c2=O)C(O)C(O)C1O (stereo not drawn) , write its reported melting point. 170

----------
Lab note: class by melting point, see bottom: < 50 °C; middle: ≥ 50 °C and < 200 °C; top: ≥ 200 °C

Example entries begin here.
INSERT INTO results (compound, assignedclass) VALUES
  ('O=[N+]([O-])c1cn[nH]c1', 'middle'),
  ('CCOC(=O)c1nn(-c2ccc(C)cc2)c(C)c1C(=O)C1=NOC2C(=O)N(c3ccc(F)cc3)C(=O)C12 (stereo not drawn)', 'top'),
  ('N#Cc1cc(F)c(Cl)cc1Cl', 'bottom'),
  ('CCC1(O)c2ccccc2C1C (stereo not drawn)', 'middle'),
  ('CC(=O)Nc1cccc(N=[N+]([O-])c2cccc(NC(C)=O)c2)c1', 'top'),
  ('CC(C)(C)C1=CC(=O)C(C(C)(C)C)=CC1=O', 'middle'),
  ('O=C(O)C1CCC1', 'bottom'),
  ('COC(=O)CCC(C)C1CCC2C3CCC4CCCCC4(C)C3CC(=O)C12C (stereo not drawn)', 'middle');

# evaluate next
Categorize the following entry: O=COC1OC(=O)c2ccccc21 (stereo not drawn) middle

----------
Lab note: class by melting point, see bucket 1 = under 100 °C, bucket 2 = from 100 °C up to 200 °C, bucket 3 = 200 °C and over

INSERT INTO assay_data (compound, assignedclass) VALUES
  ('O=Cc1ccccn1', 'bucket 1'),
  ('O=C(Nc1cccnc1)C(F)(F)C(F)(F)C(F)(F)C(F)(F)C(F)(F)C(F)(F)C(F)(F)C(F)(F)F', 'bucket 2'),
  ('[O-][n+]1nc(-n2ccnc2)nc2ccc(Cl)cc21', 'bucket 2'),
  ('FC(Cl)C(Cl)(Cl)Cl (stereo not drawn)', 'bucket 1'),
  ('Cn1c(=O)c(C2=NNC(=O)C2=NNc2nccs2)c(O)c2ccccc21', 'bucket 3');

# evaluate next
Categorize the following entry: NC(=O)C1CCN(CCCN2c3ccccc3Sc3ccc(Cl)cc32)CC1 bucket 2

----------
outcomeMeasure: melting point (°C)
Give the value, in units of °C, as a plain number.

Sample records with melting point:
INSERT INTO assay_data (smilesrepresentation, readingunit, observedresult) VALUES
  ('Cc1sc(-c2cccnc2)nc1-c1ccccc1', '°C', 80),
  ('CC1(C)C(C(=O)c2ccccc2)=Nc2ccccc21', '°C', 83),
  ('CC(C)(C)N(NC(=O)c1ccc(Cl)cc1)C(=O)c1ccccc1', '°C', 200),
  ('OCC#CCO', '°C', 56),
  ('CCCCCCCCC(=O)OCCCC', '°C', -38);

Given the compound Cc1cc(C(=O)O)cc(C)c1OCc1ccccc1 , write its reported melting point. 159

Given the compound CCN(CC)C(=S)SC(=S)N(CC)CC , write its reported melting point. 31

Given the compound Cc1cnc(C)cn1 , write its reported melting point. 15

Given the compound COc1ccc(S(N)(=O)=O)c(OC)c1 , write its reported melting point. 168

Given the compound CC(C)(C)c1cc(S)cc(C(C)(C)C)c1O , write its reported melting point. 76

Given the compound CCS(=O)CC , write its reported melting point. 14

----------
Lab note: class by melting point, see lower (below 50 °C), middle (50 °C to below 100 °C), upper (100 °C or more)

INSERT INTO results (molecule, assignedclass) VALUES
  ('ClC1CCCCC1Cl (configuration not stated)', 'lower'),
  ('Clc1ccc(-c2c(Cl)cc(Cl)c(Cl)c2Cl)cc1Cl', 'upper'),
  ('Cc1ccncc1C#N', 'lower');

Categorize the following entry: COc1ccc([N+](=O)[O-])cc1 middle

Categorize the following entry: ClCC(Br)CBr (configuration not stated) lower

Categorize the following entry: COC(=O)c1cccc(C(=O)OC)n1 upper

Categorize the following entry: ClCc1c(Cl)c(Cl)c(CCl)c(Cl)c1Cl upper

Categorize the following entry: CC(=O)c1ccc(CO)cc1 middle

Categorize the following entry: Cc1cc(C)c2cnn(-c3ccccc3)c2n1 middle

Categorize the following entry: Oc1cccc2cc3cccc(O)c3c(O)c12 upper

Categorize the following entry: O=C(Nc1ccc(Cl)cc1)Nc1ccc(Cl)c(C(F)(F)F)c1 upper

Categorize the following entry: COc1ccccc1NC(N)=S upper

Categorize the following entry: CC(C)(C)OC(=O)NCCC(=O)O middle

Categorize the following entry: O=C(c1ccccc1)c1nn(-c2ccccc2)c(-c2ccc([N+](=O)[O-])cc2)c1S(=O)(=O)c1ccccc1 upper

Categorize the following entry: S=C=Nc1cc(Cl)c(Cl)cc1Cl lower

Categorize the following entry: Cc1cc(NS(=O)(=O)c2ccc(N)cc2)nc(C)n1 upper

Categorize the following entry: CC1(C)CC(=O)NC(=O)C1 upper

Categorize the following entry: CC(CC1CCCCC1)CC1CCCCC1 lower

Categorize the following entry: O=Cc1c(F)cc(F)cc1F middle

----------
# maps each entry to its melting point
Give the value, in units of °C, as a plain number.

Sample records with melting point:
INSERT INTO assay_data (compound, readingunit, observedresult) VALUES
  ('O=c1n(-c2ccccc2)c(=O)n(-c2ccccc2)c(=O)n1-c1ccccc1', '°C', 285),
  ('Nc1c(F)c(F)c(C(=O)O)c(F)c1F', '°C', 183),
  ('CC(C)(C)C1CCCCC1O (configuration not stated)', '°C', 45),
  ('CC(=O)n1nc2oc3ccccc3cc-2c1=O', '°C', 170);

Given the compound c1ccc(C2Nc3ccccc3C2c2ccccc2)cc1 (configuration not stated) , write its reported melting point. 173

----------
Kindly apply the following: yes if melting point is less than 100 °C, no in every other case.

Example entries begin here.
INSERT INTO assay_data (compound, assignedclass) VALUES
  ('CCCCF', 'yes'),
  ('CCCCc1c(C)nc(NCC)nc1O', 'no'),
  ('Nc1ccc(Cl)cc1Br', 'yes'),
  ('O=Cc1cccc(Br)c1', 'yes'),
  ('CN(C)c1ccc(CCC2CCc3ccccc3N2C(=O)c2ccccc2)cc1 (centres undefined)', 'no');

Please let me know if NC(=O)C#CC(N)=O shows melting point below 100 °C. no

Please let me know if Cc1cc2ccccc2s1 shows melting point below 100 °C. yes

Please let me know if O=S(=O)(O)C(F)(F)F shows melting point below 100 °C. yes

Please let me know if Clc1ccccc1C(c1ccccc1)(c1ccccc1)n1ccnc1 shows melting point below 100 °C. no
